target: basic fibroblast growth factor (bFGF) (UniProt P09038); experiment: filter; settings: round 0 pool
Sequence (P09038 135-288): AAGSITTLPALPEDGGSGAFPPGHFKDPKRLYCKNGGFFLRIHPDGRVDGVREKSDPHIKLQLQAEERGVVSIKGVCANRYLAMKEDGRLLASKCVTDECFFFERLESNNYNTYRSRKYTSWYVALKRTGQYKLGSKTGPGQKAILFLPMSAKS
pKd: −log10 of the molar value.
measurementLabel: pKd

INSERT INTO assay_data (monomersequence, targetortestsystem, experimentalvalue) VALUES
  ('GGGAGGACGATGCGGNCAGACGACGACGGGGA [DNA random pool 30N7.1PS (round 0)]', 'basic fibroblast growth factor (bFGF) (UniProt P09038)', 6.52);

====

# pKd per entry
target: thrombin (alpha) (human) (UniProt P00734+P00734); test: filter; details: bulk pool; text also says after 12 rounds, apparently unselected
pKd: −log10 of the molar value.
measurementLabel: pKd

INSERT INTO results (monomersequence, measurementlabel, experimentalvalue) VALUES
  ('AGATGCCTGTCGAGCATGCTNGTAGCTAAACTGCTTTGTCGACGGG [bulk 30N DNA]', 'pKd', 5.10),
  ('AGATGCCTGTCGAGCATGCTNGTAGCTAAACTGCTTTGTCGACGGG [bulk 60N DNA]', 'pKd', 5.30);

====

target: basic fibroblast growth factor (bFGF) (UniProt P09038); assay: filter; details: PBS
pKd: −log10 of the molar value.
measurementLabel: pKd

INSERT INTO assay_data (monomersequence, experimentalvalue) VALUES
  ('GGGAGGACGATGCGGGGGGCTATGCGATACAGTCGCGNTANGCTAGGCGCAGACGAGCGGGA [m26]', 8.80);

====

molecular target: basic fibroblast growth factor (bFGF); assay: filter; conditions: round 10 pool
measurementLabel: Kd (nM)

INSERT INTO results (monomersequence, targetortestsystem, measurementlabel, experimentalvalue) VALUES
  ('GGGAGGACGATGCGGNCAGACGACGACGGGGA [DNA SELEX pool Experiment 3 round 10]', 'basic fibroblast growth factor (bFGF)', 'Kd', 2.5);

====

target: basic fibroblast growth factor (bFGF); assay: filter; conditions: unselected pool, PBS, 37 C
measurementLabel: Kd

INSERT INTO results (monomersequence, targetortestsystem, measurementlabel, experimentalvalue) VALUES
  ('GGGAGAUGCCUGUCGAGCAUGCUGNNNNNNNNNNNNNNNNNNNNNNNNNNNNNNGUAGCUAAACAGCUUUGUCGACGGG [random RNA B (unmodified)]', 'basic fibroblast growth factor (bFGF)', 'Kd', '560 nM'),
  ('GGGAGCUCAGAAUAAACGCUCAANNNNNNNNNNNNNNNNNNNNNNNNNNNNNNUUCGACAUGAGGCCCGGAUCCGGC [random RNA A (unmodified)]', 'basic fibroblast growth factor (bFGF)', 'Kd', '300 nM');

Measured values drawn from patent US6177557 for this set.
